Assayed System: Rat α3β2 nAChR (Rattus norvegicus, UniProt P04757+P12390)
Sequence (P04757 26-499 limits assumed): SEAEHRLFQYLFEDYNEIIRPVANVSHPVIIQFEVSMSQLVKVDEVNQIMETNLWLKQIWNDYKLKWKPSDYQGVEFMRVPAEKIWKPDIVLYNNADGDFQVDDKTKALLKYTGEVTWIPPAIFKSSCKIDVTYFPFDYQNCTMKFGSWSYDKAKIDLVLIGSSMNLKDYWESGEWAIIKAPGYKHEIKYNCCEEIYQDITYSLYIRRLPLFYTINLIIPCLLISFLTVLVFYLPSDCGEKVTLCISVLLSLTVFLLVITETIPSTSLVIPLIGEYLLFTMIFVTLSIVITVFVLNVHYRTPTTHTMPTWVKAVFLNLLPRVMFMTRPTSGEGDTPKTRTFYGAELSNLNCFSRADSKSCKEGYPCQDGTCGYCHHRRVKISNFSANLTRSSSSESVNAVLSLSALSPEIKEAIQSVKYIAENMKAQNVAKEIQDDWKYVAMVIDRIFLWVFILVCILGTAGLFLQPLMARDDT
Sequence (P12390 25-500 limits assumed): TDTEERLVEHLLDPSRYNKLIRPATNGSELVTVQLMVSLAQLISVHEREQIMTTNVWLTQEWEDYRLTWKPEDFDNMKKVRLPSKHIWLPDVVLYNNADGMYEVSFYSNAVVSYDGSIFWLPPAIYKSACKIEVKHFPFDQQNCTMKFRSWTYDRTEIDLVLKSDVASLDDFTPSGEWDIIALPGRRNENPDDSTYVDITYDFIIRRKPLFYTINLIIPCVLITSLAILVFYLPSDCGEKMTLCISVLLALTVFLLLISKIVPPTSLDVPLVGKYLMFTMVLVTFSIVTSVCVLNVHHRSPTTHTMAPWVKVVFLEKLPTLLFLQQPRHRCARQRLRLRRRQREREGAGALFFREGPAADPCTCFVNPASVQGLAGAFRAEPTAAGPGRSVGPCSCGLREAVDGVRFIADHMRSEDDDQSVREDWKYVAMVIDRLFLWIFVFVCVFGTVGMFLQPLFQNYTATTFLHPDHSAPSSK
Experiment Summary: cell-based
Where a SMILES comes first, the peptide text is derived from it. Bridges are numbered along the chain shown (N, C = ends).
Reported pIC50 values are given for each entry in this list.
// pIC50 is dimensionless: -log10 of concentration (M)

# Molecule, pIC50
rows = [
    ("CC(C)C[C@@H]1NC(=O)[C@H](CC(N)=O)NC(=O)[C@H](CO)NC(=O)[C@H](Cc2c[nH]cn2)NC(=O)[C@H](CCC(=O)O)NC(=O)[C@H](CC(C)C)NC(=O)[C@H](Cc2c[nH]cn2)NC(=O)[C@@H]2CSSC[C@H](NC(=O)CN)C(=O)N[C@@H](CSSC[C@@H](C(N)=O)NC1=O)C(=O)N[C@@H](C)C(=O)N[C@@H](CC(N)=O)C(=O)N1CCC[C@H]1C(=O)N[C@@H](C(C)C)C(=O)N2 [MII[S4A]] (H-GCCANPVCHLEHSNLC-NH2; disulfide 2-8, 3-16)", 7.80),
]

Kindly consider the entry below.
Query :: Form field: reported pIC50 of CC(C)C[C@@H]1NC(=O)[C@H](Cc2c[nH]cn2)NC(=O)[C@@H]2CSSC[C@H](NC(=O)CN)C(=O)N[C@@H](CSSC[C@@H](C(N)=O)NC(=O)[C@H](C)NC(=O)[C@H](CC(N)=O)NC(=O)[C@H](CO)NC(=O)[C@H](Cc3c[nH]cn3)NC(=O)[C@H](C)NC1=O)C(=O)N[C@@H](CO)C(=O)N[C@@H](CC(N)=O)C(=O)N1CCC[C@H]1C(=O)N[C@@H](C(C)C)C(=O)N2 [MII[E11A; L15A]] (H-GCCSNPVCHLAHSNAC-NH2; disulfide 2-8, 3-16)
Result :: 7.30
